Origin of the recorded values: patent US20260007756A1

# Test system: A549
# MEASUREMENT_NOTES: Expansion inhibition of tumor cells (Example 7, CCK-8)
# Assay type: cell-based
# TEST_CONDITIONS: Homo sapiens, A549 (no detectable FOLR1 or PSMA expression), 72 h
MEASURE: pIC50
When answering, recall that pIC50 equals minus log10 of the concentration in mol/L, and write that number alone.

So what does the record say about pIC50 for CC[C@@H]1C(=O)N(C)c2cnc(Nc3ccc(-c4cn([C@H]5CC[C@@H](NCCOCCC#Cc6cccc7c6CN(C6CCC(=O)NC6=O)C7=O)CC5)nn4)cc3OC)nc2N1C1CCCC1 (stereo partly shown) [CR20274] ?
6.91

----------
# Tested on: PC-3
# MEASUREMENT_NOTES: Expansion inhibition of tumor cells (Example 7, CCK-8)
# Type: cell-based
# TEST_CONDITIONS: Homo sapiens, PC-3 (no detectable FOLR1 or PSMA expression), 72 h
MEASURE: IC50 (nM)
Respond with the bare value in nM.

Please look up its IC50: CC[C@@H]1C(=O)N(C)c2cnc(Nc3ccc(-c4cn([C@H]5CC[C@@H](NCCOCCC#Cc6cccc7c6CN(C6CCC(=O)NC6=O)C7=O)CC5)nn4)cc3OC)nc2N1C1CCCC1 (stereo partly shown)
103
